Tested on: NCI-H441
ASSAY INFO: relative viability (nuclei count vs DMSO), 5 days (fraction); higher = more cells survive
CONDITION SET: first compound 0.003162 µM
# maps each entry to its relative viability
READOUT KIND: relative viability

[
  {
    "COMPOUND": "Cc1cn(-c2cc(NC(=O)c3ccc(C)c(Nc4nccc(-c5cccnc5)n4)c3)cc(C(F)(F)F)c2)cn1 [Nilotinib] + CC(C)C[C@H](NC(=O)[C@H](Cc1ccccc1)NC(=O)c1cnccn1)B(O)O [Bortezomib] (partner 0.002 µM)",
    "NUMERIC VALUE": 0.735
  },
  {
    "COMPOUND": "Cc1cn(-c2cc(NC(=O)c3ccc(C)c(Nc4nccc(-c5cccnc5)n4)c3)cc(C(F)(F)F)c2)cn1 [Nilotinib] + CCNC(=O)c1noc(-c2cc(C(C)C)c(O)cc2O)c1-c1ccc(CN2CCOCC2)cc1 [Luminespib] (partner 0.01 µM)",
    "NUMERIC VALUE": 0.375
  }
]
